Where do these numbers come from? They come from patent US20230250108A1.

Catalogue of pIC50 readings, one per entry.
# Test system: Z-138 cells
# TEST_DESCRIPTION: Inhibitory activity on tumor cell proliferation (Cell-Titer Glo, 8 days)
# Type: cell-based
# TEST_PARAMETERS: Homo sapiens, 192 h, read-out: Inhibition of cell proliferation Z-138 IC50
pIC50: −log10 of the molar value. Counter-ions that a name gives are not always drawn.
PROPERTY_NAME: pIC50

• CCN1CCN(C[C@@H](O)[C@@H]2Cc3ccccc3CN2)C(=O)c2ccc(C(=O)N3CCC4(CC3)CC(=O)C4)cc21 = 8.25
• CCN1CCN(C[C@@H](O)[C@@H]2Cc3ccccc3CN2)C(=O)c2ccc(C(=O)N3CCOCC3)cc21 [Compound 014, hydrochloride] = 7.93
• CCN1CCN(C[C@@H](O)[C@@H]2Cc3ccccc3CN2)C(=O)c2ccc(C(=O)N3CCC4(CC3)CC(OC)C4)cc21.Cl [Compound 002, hydrochloride] = 8.66

====

# TEST_DESCRIPTION: in vitro
# TEST_PARAMETERS: human, hepatocytes
PROPERTY_NAME: half-life at 1 μM (h)

- CCN1CCN(C[C@@H](O)[C@@H]2Cc3ccccc3CN2)C(=O)c2ccc(C(=O)N3CCC4(CC3)CC(C#N)C4)cc21 [Compound 003]: 131
- CCN1CCN(C[C@@H](O)[C@@H]2Cc3ccccc3CN2)C(=O)c2ccc(C(=O)N3CCC4(CC3)CC(O)C4)cc21 [Compound 024]: 12.9

====

Catalogue of pIC50 readings, one per entry.
# ASSAYED_TARGET: PRMT5/MEP50 (Homo sapiens, UniProt O14744)
# Construct: purchased BPS Bioscience Inc. (USA)
# Sequence (O14744 2-637 limits assumed): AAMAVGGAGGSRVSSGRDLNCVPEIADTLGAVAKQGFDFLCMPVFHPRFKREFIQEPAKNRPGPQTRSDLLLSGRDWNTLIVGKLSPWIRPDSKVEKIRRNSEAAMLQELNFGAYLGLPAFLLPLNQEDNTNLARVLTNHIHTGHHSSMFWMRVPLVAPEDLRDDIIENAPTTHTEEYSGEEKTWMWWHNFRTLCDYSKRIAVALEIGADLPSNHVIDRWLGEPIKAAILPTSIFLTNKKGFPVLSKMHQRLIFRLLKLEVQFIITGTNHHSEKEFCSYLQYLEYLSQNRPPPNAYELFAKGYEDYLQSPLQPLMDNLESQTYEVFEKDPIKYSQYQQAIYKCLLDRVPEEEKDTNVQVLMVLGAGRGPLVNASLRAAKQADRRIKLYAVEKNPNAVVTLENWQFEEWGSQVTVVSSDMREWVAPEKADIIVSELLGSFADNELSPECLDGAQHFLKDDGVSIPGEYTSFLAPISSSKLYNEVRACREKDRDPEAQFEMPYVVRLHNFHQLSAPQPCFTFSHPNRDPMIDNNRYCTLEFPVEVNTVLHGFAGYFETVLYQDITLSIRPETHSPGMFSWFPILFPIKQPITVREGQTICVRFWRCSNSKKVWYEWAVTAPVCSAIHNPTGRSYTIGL
# Sequence (Q9BQA1 2-342 partner limits assumed): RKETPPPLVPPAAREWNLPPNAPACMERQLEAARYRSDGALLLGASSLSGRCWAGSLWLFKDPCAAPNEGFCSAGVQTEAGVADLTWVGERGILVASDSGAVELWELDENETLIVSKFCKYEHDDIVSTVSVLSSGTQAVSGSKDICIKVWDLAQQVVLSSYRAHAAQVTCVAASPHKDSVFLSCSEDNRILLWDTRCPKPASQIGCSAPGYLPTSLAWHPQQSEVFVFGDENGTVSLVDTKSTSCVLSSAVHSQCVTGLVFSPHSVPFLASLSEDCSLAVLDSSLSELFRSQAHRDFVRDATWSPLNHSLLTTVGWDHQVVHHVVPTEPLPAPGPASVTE
# TEST_DESCRIPTION: PRMT5 enzymatic activity inhibition experiment (AlphaScreen)
# Assay type: biochemical
# TEST_PARAMETERS: PRMT5/MEP50, Histone H4 peptide substrate; read-out: Inhibition of enzymatic activity IC50
pIC50: −log10 of the molar value. Counter-ions that a name gives are not always drawn.
PROPERTY_NAME: pIC50

- CCN1CCN(C[C@@H](O)[C@@H]2Cc3ccccc3CN2)C(=O)c2ccc(C(=O)N3CCC4(CCC(OC)CC4)CC3)cc21 [Compound 006, hydrochloride]: 8.44
- COC1CC2CCC(C1)N2C(=O)c1ccc2c(c1)OCCN(C[C@@H](O)[C@@H]1Cc3ccccc3CN1)C2=O (some centres unmarked): 7.91
- CCN1CCN(C[C@@H](O)[C@@H]2Cc3ccccc3CN2)C(=O)c2ccc(C(=O)N3CCC4(CC3)CC(C#N)C4)cc21: 8.69
- COC1CC2(CCN(C(=O)c3ccc4c(c3)OCCN(C[C@@H](O)[C@@H]3Cc5ccccc5CN3)C4=O)CC2)C1: 8.30
- O=C1c2ccc(C(=O)N3C4CCC3COC4)cc2OCCN1C[C@@H](O)[C@@H]1Cc2ccccc2CN1: 8.12

====

# TEST_DESCRIPTION: Pharmacokinetic experiment in mice
# Format: in vivo, CB17-SCID mice
# TEST_PARAMETERS: female, CB17-SCID, mouse, plasma, 2 mg/kg; Mice IV (2 mpk)
PROPERTY_NAME: half-life

• CCN1CCN(C[C@@H](O)[C@@H]2Cc3ccccc3CN2)C(=O)c2ccc(C(=O)N3CCC4(CC3)CC(OC)C4)cc21.Cl = 3.56 h
